experiment: Inhibition of Plasmodium falciparum falcipain-3 expressed in Escherichia coli
measured-attribute: pIC50
Quick note: pIC50 values are minus log10 of concentrations in mol/L.

# compound, measured-attribute, experimental-result
records = [
    ("CC(C)CN(NC(=O)C1(c2ccc(Cl)cc2)CC1)c1nc(C#N)ncc1Br", "pIC50", 7.16),
    ("CC(C)CN(NC(=O)Cc1ccc(CN2CCN(C)CC2)cc1)c1nc(C#N)ncc1Br", "pIC50", 8.30),
    ("CN1CCN(Cc2ccc(C(=O)NN(CC3CC=CC3)c3nc(C#N)ncc3Br)cc2)CC1", "pIC50", 7.80),
    ("CC(C)CN(NC(=O)c1ccc(-c2ccc(CN3CCN(C)CC3)cc2)o1)c1nc(C#N)ncc1Br", "pIC50", 8.30),
    ("CC(C)CN(NC(=O)c1ccc(C(=O)c2ccccc2)cc1)c1nc(C#N)ncc1Br", "pIC50", 6.94),
    ("CC(C)(C)OC(=O)NN(Cc1ccoc1)c1nc(C#N)ncc1Br", "pIC50", 6.74),
    ("CC1CCC(N(NC(=O)c2ccc(CN3CCN(C)CC3)cc2)c2nc(C#N)ncc2Br)C1 (stereo not given)", "pIC50", 7.35),
    ("CC(C)(C)OC(=O)NN(CC1CC=CC1)c1nc(C#N)ncc1Br", "pIC50", 7.46),
    ("CC(C)N1CCC(N(NC(=O)OC(C)(C)C)c2nc(C#N)ncc2Br)CC1", "pIC50", 5.28),
    ("CC(C)CN(NC(=O)c1ccc(-c2ccc(Cl)cc2)o1)c1nc(C#N)ncc1Br", "pIC50", 6.45),
]

GET /values?readout=pIC50&item= CC(C)CN(NC(=O)OC(C)(C)C)c1nc(C#N)ncc1Br
7.04
